- tested-on: CDK2 (UniProt P24941)
- procedure-summary: Enzyme Assay
- reported-conditions: concentration not given here
Threshold rule: inhibition greater than or equal to 80% is 1; below that, -1.

Answer whether inhibition of `CS(=O)(=O)c1ccccc1S(=O)(=O)Nc1ccc2[nH]nc(-c3cc4cccnc4[nH]3)c2c1` is greater than or equal to 80%. -1

Repeat with `CS(=O)(=O)c1ccccc1S(=O)(=O)Nc1ccc2[nH]nc(-c3cccc(N)c3)c2c1` 1

Also need `CS(=O)(=O)c1ccccc1S(=O)(=O)Nc1ccc2[nH]nc(-c3cccc(F)c3F)c2c1` , thanks. -1

Next: `CCCNC(=O)c1n[nH]c2ccc(NS(=O)(=O)c3ccccc3S(C)(=O)=O)cc12` 1

Likewise for `CS(=O)(=O)c1ccccc1S(=O)(=O)Nc1ccc2[nH]nc(C#Cc3ccccc3)c2c1` ? 1

Param item: `Cc1cccc(S(=O)(=O)Nc2ccc3[nH]nc(-c4ccccc4)c3c2)c1` -1

Same read-out for `CS(=O)(=O)c1ccccc1S(=O)(=O)Nc1ccc2[nH]nc(-c3ccc(CO)cc3)c2c1` ? -1

How about `CN(C)c1cccc2c(S(=O)(=O)Nc3cccc(-c4n[nH]c5ccc(NS(=O)(=O)c6ccccc6S(C)(=O)=O)cc45)c3)cccc12` ? -1
